- target_entity: GST-RIPK1 (recombinant GST-RIPK1 kinase domain (residues 1-327)) (Homo sapiens (Human))
- Sequence (Q13546 1-327): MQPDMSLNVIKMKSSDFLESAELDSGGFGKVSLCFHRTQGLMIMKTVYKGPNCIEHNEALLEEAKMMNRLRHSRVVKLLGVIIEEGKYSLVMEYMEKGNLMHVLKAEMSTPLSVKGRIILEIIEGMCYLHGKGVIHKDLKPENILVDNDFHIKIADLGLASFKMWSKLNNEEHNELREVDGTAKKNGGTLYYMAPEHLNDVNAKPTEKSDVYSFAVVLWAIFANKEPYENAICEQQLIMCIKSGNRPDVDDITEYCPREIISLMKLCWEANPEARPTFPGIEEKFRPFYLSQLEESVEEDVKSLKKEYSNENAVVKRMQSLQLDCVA
- test: RIPK1-ADP-Glo Enzymatic Assay
- run_conditions: 25 nM GST-RIPK1, 300 μM ATP, 3 μM dephosphorylated-MBP, 30 min pre-incubation, 150 min reaction
readout_type: EC50 (nM)
One number for each entry, in nM.

Consider the reported EC50 for these compounds:
INSERT INTO assay_data (compound, readout_type, result_value) VALUES
  ('Cc1c(F)cc([C@@H]2CCc3nn(C45CC(F)(C4)C5)c(=O)n32)cc1F', 'EC50', 15.8),
  ('N#CC12CC(n3nc4n(c3=O)[C@H](c3cc(F)cc(F)c3)CS4)(C1)C2', 'EC50', 21.1);

Give EC50 for each of the items listed below.
1. O=c1n(C23CC(F)(C2)C3)nc2n1[C@H](c1cc(F)c(F)c(F)c1)CC2
2. O=c1n(C23CC(F)(C2)C3)nc2n1[C@H](c1ccccc1F)CC2
3. COc1ccc([C@@H]2CCc3nn(C45CC(F)(C4)C5)c(=O)n32)cc1
4. O=c1n(C23CC(F)(C2)C3)nc2n1[C@H](c1cc(F)cc(F)c1)CC2F (single isomer, unassigned) [Compound 6-2]
5. O=c1n(C23CC(F)(C2)C3)nc2n1C(c1cccc(F)c1F)CC2 (racemic)
6. N#CC12CC(n3nc4n(c3=O)[C@H](c3cnccn3)CC4)(C1)C2

27.5
26.1
85.8
18.4
53.8
165

Give EC50 for each of the items listed below.
1. O=c1n(C23CCC(F)(CC2)C3)nc2n1[C@H](c1cc(F)cc(F)c1)CC2
2. O=c1n(C23CC(F)(C2)C3)nc2n1[C@H](c1ccc(C(F)F)cc1)CC2
3. N#CC12CC(n3nc4n(c3=O)[C@@H](c3cc(F)cc(F)c3)CS4)(C1)C2
4. O=c1n(C23CC(C(F)F)(C2)C3)nc2n1[C@H](c1cncc(F)c1)CC2
5. O=c1n(C23CCC(C(F)F)(CC2)C3)nc2n1[C@H](c1cc(F)cc(F)c1)CC2
6. N#CC12CC(n3nc4n(c3=O)[C@H](c3cncc(F)c3)CC4)(C1)C2
7. O=c1n(C23CC(F)(C2)C3)nc2n1[C@H](c1ccccc1)COC2
8. CC1Cc2nn(C34CC(C#N)(C3)C4)c(=O)n2C1c1cc(F)cc(F)c1 (single isomer, unassigned)

34.8
62.9
395
369
537
300
93.9
601

Give EC50 for each of the items listed below.
1. N#CC12CC(n3nc4n(c3=O)[C@H](c3c(F)cccc3F)CC4)(C1)C2
2. CC12CC(n3nc4n(c3=O)[C@H](c3cc(F)cc(F)c3)CC4)(CO1)C2
3. N#CC12CC(n3nc4n(c3=O)[C@H](c3ccc(Cl)cc3)CC4)(C1)C2
4. O=c1n(C23CC(F)(C2)C3)nc2n1[C@H](c1ccc(F)cc1)CC2

1: 57.7; 2: 152; 3: 44; 4: 65.6
